B1: HDV Ribozyme (parent)
chain: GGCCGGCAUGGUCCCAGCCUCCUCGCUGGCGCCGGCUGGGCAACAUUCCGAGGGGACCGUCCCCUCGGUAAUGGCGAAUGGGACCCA

Variants of: B1
assay: self-cleavage, relative activity (ratio to wild type); higher = more cleavage; co-transcriptional
measured.endpoint: self-cleavage

| variant | self-cleavage |
| --- | --- |
| G11C C64G | 0.514 |
| A71C U72C | 0.185 |
| C49A C61A | 0.759 |

Item under review: U72C A87C . Reported self-cleavage?
0.597

Now try A8G C64U .
1.07

src = the RNAGym collection of RNA variant scans (doi:10.7554/elife.80360)
